The origin of these recorded values is BindingDB's records for doi:10.1016/j.bmcl.2012.12.028.

# TARGET OR SYSTEM: P-selectin (Homo sapiens)
# Sequence (P16109 whole entry V640L): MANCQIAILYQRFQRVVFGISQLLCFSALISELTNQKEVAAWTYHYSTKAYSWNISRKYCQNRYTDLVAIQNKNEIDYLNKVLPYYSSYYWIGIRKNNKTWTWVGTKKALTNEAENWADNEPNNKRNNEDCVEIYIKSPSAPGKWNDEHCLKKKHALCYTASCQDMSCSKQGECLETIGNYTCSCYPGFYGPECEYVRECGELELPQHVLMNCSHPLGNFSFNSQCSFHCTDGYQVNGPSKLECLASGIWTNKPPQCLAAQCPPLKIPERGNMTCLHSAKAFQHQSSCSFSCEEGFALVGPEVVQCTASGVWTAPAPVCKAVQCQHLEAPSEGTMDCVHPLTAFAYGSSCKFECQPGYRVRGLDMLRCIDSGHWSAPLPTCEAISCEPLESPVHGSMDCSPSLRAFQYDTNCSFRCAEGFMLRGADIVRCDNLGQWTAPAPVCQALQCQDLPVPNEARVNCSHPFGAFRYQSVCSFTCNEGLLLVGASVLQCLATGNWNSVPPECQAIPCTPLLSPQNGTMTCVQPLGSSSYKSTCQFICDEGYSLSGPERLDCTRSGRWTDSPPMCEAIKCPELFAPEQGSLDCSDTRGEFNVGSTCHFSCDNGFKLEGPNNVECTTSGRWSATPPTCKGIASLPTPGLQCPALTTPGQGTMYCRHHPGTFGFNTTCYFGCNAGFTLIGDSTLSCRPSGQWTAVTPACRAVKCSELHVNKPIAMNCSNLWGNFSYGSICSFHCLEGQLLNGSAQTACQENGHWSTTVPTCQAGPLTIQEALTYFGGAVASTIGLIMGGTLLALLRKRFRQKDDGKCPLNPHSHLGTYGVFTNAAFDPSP
# METHOD DESCRIPTION: Inhibition of P-selectin aggregation in platelet surface (unknown origin)
Friendly reminder: IC50 below 2 µM is y, at or above is n.

CN1CCC(NC(=O)c2cnc(NCc3cc(Cl)ccc3Cl)nc2NC2CCNCC2)CC1	n
CN1CCC(NC(=O)c2cnc(Nc3cc(Cl)cc(Cl)c3)nc2NC2CCOCC2)CC1	y
CN1CCC(NC(=O)c2cnc(Nc3cc(Cl)cc(Cl)c3)nc2N[C@@H]2COC[C@H]2O)CC1	n
COc1ccccc1CNc1ncc(C(=O)NCCNC(C)=O)c(NC2CCCC2)n1	n
CN1CCC(NC(=O)c2cnc(Nc3cc(Cl)cc(Cl)c3)nc2N[C@H]2CCCCNC2=O)CC1	y

# strict comparison: is reported IC50 < 2 µM? input = O[C@@H]1COC[C@H]1Nc1nc(Nc2cc(Cl)cc(Cl)c2)ncc1Br
n
